- Procedure summary: Solubility in simulated fluids and water
- Format: physicochemical
- Assay setup: Fed-State Simulated Intestinal Fluid (FeSSIF), fessif, thermodynamic from solid, 24 h
- Protocol: Solubility of Pattern A and melted solid was assessed in Fasted-State Simulated Gastric Fluid (FaSSGF), Fed-State Simulated Intestinal Fluid (FeSSIF), and Fasted-State Simulated Intestinal Fluid (FaSSIF), water, and 0.5% methyl cellulose+2% Tween80 in water. […] The response factor calculated with the calibration points was used to determine the concentrations of API in the simulated fluids and water. […]
Observation type: solubility at 24 h
# output: numeric value plus its unit

Lookup result for CCCCCCCCCC1=C(C)C(=O)C(C)=C(C)C1=O ; measured solubility at 24 h: 200 µg/mL

###

- Procedure summary: Brain and plasma exposure of C9 in mice after oral dosing
- Format: in vivo
- Assay setup: mouse, brain, 300 mg/kg PO in sesame oil, C57BL/6 mice, read-out: C9 [Brain]
Observation type: concentration at 8 h (ng/g)
Could you give me the number in ng/g? Just the number is fine.

The compound listed as CCCCCCCCCC1=C(C)C(=O)C(C)=C(C)C1=O has a reported concentration at 8 h of 27900

###

- System: AD patient fibroblasts AG11414
- Procedure summary: Rescue of AD patient fibroblasts from BSO plus iron-induced oxidative stress, AG11414
- Format: cell-based
- Assay setup: Homo sapiens, Fibroblast, Iron citrate (100 μM) + BSO (100 μM)
Observation type: pEC50
// pEC50: -log10(molar conc.)

Here CCCCCCCCCC1=C(C)C(=O)C(C)=C(C)C1=O [Compound C9] was tested on AD patient fibroblasts AG11414, and its pEC50 came to 7.96

###

- Procedure summary: Brain and plasma exposure of C9 in mice after oral dosing
- Type: in vivo
- Assay setup: mouse, plasma, 300 mg/kg PO in sesame oil, C57BL/6 mice, read-out: C9 [Plasma]
- Procedure: A 300 mg/kg dose of C9 was administered as a sesame oil solution via oral gavage to four C57BL/6 mice. Eight hours after compound administration, plasma and brain exposure were measured (Table 10).
Observation type: concentration at 8 h (ng/mL)
Numeric only. Scale: ng/mL

Sample CCCCCCCCCC1=C(C)C(=O)C(C)=C(C)C1=O [Compound C9] ; concentration at 8 h observed: 3830

###

- Test system: AD patient fibroblasts ND34730
- Procedure summary: Rescue of AD patient fibroblasts from BSO plus iron-induced oxidative stress, ND34730
- Type: cell-based
- Assay setup: Homo sapiens, Fibroblast, Iron citrate (100 μM) + BSO (25 μM)
Observation type: EC50 (nM)
Use nM as the unit, but write only the number.

EC50 reported for this compound CCCCCCCCCC1=C(C)C(=O)C(C)=C(C)C1=O [Compound C9] : 24

###

- Procedure summary: Solubility in simulated fluids and water
- Assay type: physicochemical
- Assay setup: 0.5% methyl cellulose + 2% Tween80 in water, aqueous with cosolvent or surfactant or cyclodextrin, thermodynamic from solid, 0.5% MC + 2% Tween80 (aq), 24 h; Phenomenex Luna Phenyl Hexyl HPLC column and modified method
Observation type: solubility at 24 h (µg/mL)
Express your answer in µg/mL, writing the number without its unit.

// solubility at 24 h value for CCCCCCCCCC1=C(C)C(=O)C(C)=C(C)C1=O : 280

###

- Procedure summary: Brain and plasma exposure of C9 in mice after oral dosing
- Format: in vivo
- Assay setup: mouse, brain and plasma, 300 mg/kg PO in sesame oil, C57BL/6 mice, read-out: Brain:Plasma Ratio
Observation type: Kp at 8 h
Form: value (number only, do not type unit).

Memo: CCCCCCCCCC1=C(C)C(=O)C(C)=C(C)C1=O , reported Kp at 8 h: 7

The measured values listed here are drawn from patent US20230339835A1.
